# target_desc: Zebrafish tac3 receptor (zebrafish)
# method_description: cell-based or functional assay
Numbered stars: 1 amine (or outer) side, 2 acyl side, 3 side chain; on linkers, the order of the positions; unused ones are H or OH. Square brackets hold non-standard residues; d marks the D form. Suc = O=C(CCC(=O)[*:2])[*:1]; NMeV = CN[C@H](C(=O)O)C(C)C; βAla = NCCC(=O)O
measured_metric: reduction of the NKB-induced response (CRE-Luc)

- binder: "Suc-DIF[NMeV][βAla]LM-NH2 (SMILES CC[C@H](C)[C@H](NC(=O)[C@H](CC(=O)O)NC(=O)CCC(=O)O)C(=O)N[C@@H](Cc1ccccc1)C(=O)N(C)[C@H](C(=O)NCCC(=O)N[C@@H](CC(C)C)C(=O)N[C@@H](CCSC)C(N)=O)C(C)C) [Ant-1]"
  val: "~60%"
- binder: "Suc-DI[dW][NMeV][βAla]LM-NH2 (SMILES CC[C@H](C)[C@H](NC(=O)[C@H](CC(=O)O)NC(=O)CCC(=O)O)C(=O)N[C@H](Cc1c[nH]c2ccccc12)C(=O)N(C)[C@H](C(=O)NCCC(=O)N[C@@H](CC(C)C)C(=O)N[C@@H](CCSC)C(N)=O)C(C)C) [Ant-4]"
  val: "~60%"
- binder: "Suc-DS[dW][NMeV][βAla]LM-NH2 (SMILES CSCC[C@H](NC(=O)[C@H](CC(C)C)NC(=O)CCNC(=O)[C@H](C(C)C)N(C)C(=O)[C@@H](Cc1c[nH]c2ccccc12)NC(=O)[C@H](CO)NC(=O)[C@H](CC(=O)O)NC(=O)CCC(=O)O)C(N)=O) [Ant-6]"
  val: "~60%"
